- System: L6-myotubes
- measurement description: Glucose uptake in differentiated L6-myotubes (3H-2-deoxyglucose), compared to isoproterenol
- Assay type: cell-based
- recorded conditions: agonist 1×10^−5 M, 50 nM 3H-2-deoxyglucose, read-out: Biological example 1: glucose uptake, activity compared to that of isoproterenol
recorded endpoint: Emax at 10 µM

- molecule: "CO[C@H]1CC[C@@H](C(C)(C)NC[C@H](O)c2cncc(F)c2)CC1"
  measured on: "L6-myotubes"
  recorded endpoint: "Emax at 10 µM"
  recorded value: "< 25%"
- molecule: "O[C@@H](CNCCC[C@H]1CC[C@@H](OCc2ccccc2)CC1)c1cccc(F)c1"
  measured on: "L6-myotubes"
  recorded endpoint: "Emax at 10 µM"
  recorded value: "25 to 50%"
- molecule: "O[C@@H](CNCC[C@H]1CC[C@@H](O)CC1)c1cncc(F)c1"
  measured on: "L6-myotubes"
  recorded endpoint: "Emax at 10 µM"
  recorded value: "25 to 50%"
- molecule: "CC(C)(CC[C@H]1CC[C@H](O)CC1)NC[C@H](O)c1cccc(F)c1"
  measured on: "L6-myotubes"
  recorded endpoint: "Emax at 10 µM"
  recorded value: "25 to 50%"
- molecule: "COC1CCC(CCCNC[C@H](O)c2cncc(F)c2)CC1 (stereo partly drawn)"
  measured on: "L6-myotubes"
  recorded endpoint: "Emax at 10 µM"
  recorded value: "< 25%"
- molecule: "CC(C)(CC[C@H]1CC[C@H](N)CC1)NC[C@H](O)c1cncc(F)c1"
  measured on: "L6-myotubes"
  recorded endpoint: "Emax at 10 µM"
  recorded value: "25 to 50%"
- molecule: "CC(C)(CC[C@H]1CC[C@H](O)CC1)NC[C@H](O)c1cncc(F)c1"
  measured on: "L6-myotubes"
  recorded endpoint: "Emax at 10 µM"
  recorded value: "25 to 50%"
- molecule: "O[C@@H](CNCC[C@H]1CC[C@H](O)CC1)c1cccc(F)c1"
  measured on: "L6-myotubes"
  recorded endpoint: "Emax at 10 µM"
  recorded value: "25 to 50%"
- molecule: "CC(C)(NC[C@H](O)c1cncc(F)c1)[C@H]1CC[C@@H](C(=O)O)CC1"
  measured on: "L6-myotubes"
  recorded endpoint: "Emax at 10 µM"
  recorded value: "25 to 50%"
